Tested on: Saccharomyces cerevisiae
METHOD_NOTES: protein stability index of tFT-peptide fusion (C-terminal peptide) (PSI (0-1 scale)); higher = more stable (slower turnover)
SETTINGS: genetic background: das1 deletion; temperature: 37 C
PROPERTY: protein stability index
The response must contain the number and no unit.

CONSTRUCT_SEQUENCE: VRFLSLNVLFFC
READING: 0.628

CONSTRUCT_SEQUENCE: FFSFTVLVSYGF
READING: 0.34

CONSTRUCT_SEQUENCE: VCLLGWGVRLVS
READING: 0.724

CONSTRUCT_SEQUENCE: FLSCSRRPLRCW
READING: 0.496

CONSTRUCT_SEQUENCE: AFCGRRGHQFYN
READING: 0.746

Exam item: Sample `VFLDCCLRVFVD` — what was its protein stability index?
Marked response: 0.424

Exam item: What protein stability index value was documented for this sequence, `FVMLSFLVSSLP` ?
Marked response: 0.513

Exam item: What value of measured protein stability index is listed for `RVFRRFCCVISM` ?
Marked response: 0.49

Exam item: I would be grateful if you could share the reported protein stability index for `GIFVWWFWGCCG` .
Marked response: 0.567

Exam item: # query: protein stability index of entry `FPYARHLSVLLL`
Marked response: 0.681

###

System: Saccharomyces cerevisiae
METHOD_NOTES: protein stability index of tFT-peptide fusion (C-terminal peptide) (PSI (0-1 scale)); higher = more stable (slower turnover)
SETTINGS: genetic background: cdc34-1; temperature: 37 C
PROPERTY: protein stability index
In your answer, state the number alone without any accompanying words.

Example entries begin here.
CONSTRUCT_SEQUENCE: FGFFRLVIVCFR
STUDY_TARGET: Saccharomyces cerevisiae
protein stability index: 0.135
//
CONSTRUCT_SEQUENCE: GGLFRWCVWRIV
STUDY_TARGET: Saccharomyces cerevisiae
protein stability index: 0.413
//
CONSTRUCT_SEQUENCE: LGVLVVAFCGGC
STUDY_TARGET: Saccharomyces cerevisiae
protein stability index: 0.488
//
CONSTRUCT_SEQUENCE: CFFMVGFVFYFV
STUDY_TARGET: Saccharomyces cerevisiae
protein stability index: 0.286
//
CONSTRUCT_SEQUENCE: GLCLFLIGVFSV
STUDY_TARGET: Saccharomyces cerevisiae
protein stability index: 0.224

Exam item: Give the reported protein stability index for `FLFPFLSVLFLL` (system: Saccharomyces cerevisiae).
Marked response: 0.477

Exam item: Please provide the recorded protein stability index for `LLSGHFRLLLAF` , tested on Saccharomyces cerevisiae.
Marked response: 0.0523

Exam item: Reported protein stability index for Saccharomyces cerevisiae, given `GRLDHWNKHKYI` ?
Marked response: 0.528

###

System: Saccharomyces cerevisiae;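 also: PSI is a weighted mean of sequencing reads over stability bins, variants kept only with over 10 reads, mCherry proximal and sfGFP distal, peptide attached via GGGS linker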
METHOD_NOTES: protein stability index of tFT-peptide fusion (C-terminal peptide) (PSI (0-1 scale)); higher = more stable (slower turnover)
SETTINGS: genetic background: wild type; temperature: 30 C
Category key, based on recorded protein stability index: 1 = under 0.2, 2 = from 0.2 up to 0.3, 3 = 0.3 and over

Sample answers from the record:
CONSTRUCT_SEQUENCE: FRLFSLWFCWVR
CAT: 2
--
CONSTRUCT_SEQUENCE: TLFSPPVLATPS
CAT: 3

Exam item: For the record `SSVLLMFFCFVC` , report the class its protein stability index corresponds to.
Marked response: 1

Exam item: Please indicate the class for `LGGCVSYINLLA` based on its protein stability index.
Marked response: 2

// provenance: the supplement of paper PMC10724198
